target.system: Epidermal growth factor receptor (Homo sapiens, UniProt P00533)
Sequence (P00533 whole entry): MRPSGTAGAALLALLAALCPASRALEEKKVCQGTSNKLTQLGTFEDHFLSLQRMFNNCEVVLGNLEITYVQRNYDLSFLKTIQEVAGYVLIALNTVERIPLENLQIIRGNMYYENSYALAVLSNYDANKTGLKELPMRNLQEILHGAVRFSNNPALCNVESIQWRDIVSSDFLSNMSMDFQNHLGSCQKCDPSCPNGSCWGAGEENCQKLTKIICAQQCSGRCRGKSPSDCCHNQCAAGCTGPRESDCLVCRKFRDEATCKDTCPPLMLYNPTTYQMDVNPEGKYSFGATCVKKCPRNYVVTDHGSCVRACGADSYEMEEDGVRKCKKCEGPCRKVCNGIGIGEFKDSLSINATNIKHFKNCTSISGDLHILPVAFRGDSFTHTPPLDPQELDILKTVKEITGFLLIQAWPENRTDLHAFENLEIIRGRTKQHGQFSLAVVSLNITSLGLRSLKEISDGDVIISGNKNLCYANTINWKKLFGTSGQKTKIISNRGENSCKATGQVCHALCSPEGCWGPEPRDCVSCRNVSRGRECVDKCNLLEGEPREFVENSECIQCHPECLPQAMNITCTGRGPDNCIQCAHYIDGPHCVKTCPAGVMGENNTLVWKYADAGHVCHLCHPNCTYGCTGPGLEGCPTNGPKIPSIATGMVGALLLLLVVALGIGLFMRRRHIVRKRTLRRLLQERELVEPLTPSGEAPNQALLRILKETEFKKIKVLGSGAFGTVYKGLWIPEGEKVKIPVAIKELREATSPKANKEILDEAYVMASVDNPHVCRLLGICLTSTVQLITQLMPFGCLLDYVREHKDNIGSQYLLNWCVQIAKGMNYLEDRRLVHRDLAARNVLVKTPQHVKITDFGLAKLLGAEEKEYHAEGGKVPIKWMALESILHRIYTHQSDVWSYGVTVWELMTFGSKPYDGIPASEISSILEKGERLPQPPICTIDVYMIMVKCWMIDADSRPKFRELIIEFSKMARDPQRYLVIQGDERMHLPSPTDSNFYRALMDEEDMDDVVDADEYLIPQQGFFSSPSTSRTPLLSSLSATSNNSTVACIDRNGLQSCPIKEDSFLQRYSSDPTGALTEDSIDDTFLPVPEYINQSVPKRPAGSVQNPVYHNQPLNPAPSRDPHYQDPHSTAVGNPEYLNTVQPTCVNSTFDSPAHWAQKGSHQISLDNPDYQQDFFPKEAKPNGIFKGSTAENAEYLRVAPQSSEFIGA
method.notes: Inhibition of EGFR (unknown origin)
pIC50: −log10 of the molar value.
endpoint.label: pIC50

I: COc1cc2ncnc(Nc3cccc(C(F)(F)F)c3)c2cc1OC
II: COc1cc2ncnc(Nc3ccc(C(C)(F)F)cc3)c2cc1OC
III: COc1cc2ncnc(Nc3ccccc3C(F)(F)F)c2cc1OC
## Task Reorder: pIC50, max to min. Answer format: the labels, ordered as requested.
## Result I, II, III

---

target.system: UniProtKB P00533
method.notes: Inhibition of EGFR (unknown origin) using biotinylated-PTP1B (Tyr66) as substrate incubated for 5 mins prior to substrate addition measured after 1 hr by ELISA
pIC50: −log10 of the molar value.
endpoint.label: pIC50

Some compounds with recorded pIC50:
COc1cc2ncnc(Nc3cccc(C#N)c3)c2cc1OC	6.38
COc1cc2ncnc(Nc3cccc(SC)c3)c2cc1OC	6.90
COc1cc2ncnc(Nc3ccc(F)c(Cl)c3)c2cc1OCCNCCN	7.92
COc1cc2ncnc(Nc3ccccc3)c2cc1OC	6.70
COc1cc2ncnc(Nc3ccc(F)c(Cl)c3)c2cc1OCCCNCCN	7.87

1: COc1cc2ncnc(Nc3ccc(F)c(Cl)c3)c2cc1OCCO
2: COc1cc2ncnc(Nc3cccc(-c4ccccc4)c3)c2cc1OC
## Task Choose between 1 and 2 : whose measured pIC50 value is numerically larger? // respond with label for picked entry
## Result 1
(1: 7.20, 2: 6.90)
